- Tested on: RARa:RXR (NR concentration 270 nM, RXRa partner concentration 90 nM)
- test.description: PBM binding z-score (relative to random genomic background probes); higher = stronger binding; sequences stand for … in GC…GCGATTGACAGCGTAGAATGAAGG
readout.kind: PBM binding z-score
// no unit, no text: just the number

Worked cases, answers included:
INPUT: Which PBM binding z-score value is on record for AGAATGAGGTTATACGTAGGTCAGGGAAGAAAGT ?
OUTPUT: 4.71

INPUT: Which PBM binding z-score value is on record for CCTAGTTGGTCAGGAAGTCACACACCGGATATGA ?
OUTPUT: 0.014

---
INPUT: Which PBM binding z-score value is on record for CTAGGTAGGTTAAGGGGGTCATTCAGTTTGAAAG ?
OUTPUT: 5.43

INPUT: Which PBM binding z-score value is on record for CCGAGTAGGTTATGAGGGGGCATTCAGTGCGAAT ?
OUTPUT: 2.87

INPUT: Which PBM binding z-score value is on record for TCGAGTAGGTTACGGGAGCATTCAGGGATGAAGA ?
OUTPUT: 0.667

INPUT: Which PBM binding z-score value is on record for CGTCCAAGGTCATACGAGGTCAGTGAAGACAGAT ?
OUTPUT: 6.69

INPUT: Which PBM binding z-score value is on record for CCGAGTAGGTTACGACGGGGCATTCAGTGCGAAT ?
OUTPUT: 1.17

INPUT: Which PBM binding z-score value is on record for CCCAGTAGGTTACGAGGGGGCATTCAGTGCGAAT ?
OUTPUT: 2.68

INPUT: Which PBM binding z-score value is on record for TCGAGAAGGTTACGGGGGCATTCAGGGATGAAGA ?
OUTPUT: 3.78

INPUT: Which PBM binding z-score value is on record for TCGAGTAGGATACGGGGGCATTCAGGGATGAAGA ?
OUTPUT: 2.17

INPUT: Which PBM binding z-score value is on record for GCTCGGAGGACAAGGTCAGGGCTTTGTCCGTAGA ?
OUTPUT: 2.71

INPUT: Which PBM binding z-score value is on record for CGAACTAGGTCAAAGGACTGTGAAAGGCGACGTA ?
OUTPUT: 1.86

INPUT: Which PBM binding z-score value is on record for CGAACTAGGTCACCAGTACAGTGAAGAGGTTGGA ?
OUTPUT: 2.65

INPUT: Which PBM binding z-score value is on record for CTATCTAGGTTAAGGGGGTCATTCAGTTTGAAAG ?
OUTPUT: 6.07

INPUT: Which PBM binding z-score value is on record for CCTACTGGGCCACGAAAGGGCATTGATTCAGTGA ?
OUTPUT: 0.471

INPUT: Which PBM binding z-score value is on record for CATACACGGTCAGCTAGGCCAGAGTAGGGACGGC ?
OUTPUT: -0.295

INPUT: Which PBM binding z-score value is on record for TCTAGTTGGTGACGGAGGTCACACACGACGGGTA ?
OUTPUT: 3.78

INPUT: Which PBM binding z-score value is on record for CGTCCAAGGTCAGCAGGTGAGTGAAAGCGACGTG ?
OUTPUT: 3.32

INPUT: Which PBM binding z-score value is on record for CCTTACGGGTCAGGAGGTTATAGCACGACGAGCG ?
OUTPUT: 4.14

INPUT: Which PBM binding z-score value is on record for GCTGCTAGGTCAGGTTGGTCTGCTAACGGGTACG ?
OUTPUT: 0.971

INPUT: Which PBM binding z-score value is on record for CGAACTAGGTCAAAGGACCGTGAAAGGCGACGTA ?
OUTPUT: 1.44
